assayed target: HLA-A*69:01
assay info: IEDB peptide-MHC binding, purified MHC/competitive/fluorescence; filed as Kd, often an IC50 or EC50 that approximates it; bounds were set here for any values at or beyond the usual limits of such assays
condition notes: source organism: Human immunodeficiency virus 1
attribute measured: Kd (µM)
Answer in µM, number only, no unit symbol.

Look up Kd: "LTFGWCFKL"
0.0465

---

assayed target: HLA-B*54:01
assay info: IEDB peptide-MHC binding, purified MHC/competitive/radioactivity; filed as Kd, often an IC50 or EC50 that approximates it; bounds were set here for any values at or beyond the usual limits of such assays
condition notes: source organism: Mammarenavirus juninense
attribute measured: Kd (nM)
Answer in nM, number only, no unit symbol.

Tell me reported Kd for "MPGVLSYVV" , tested with HLA-B*54:01.
0.507

Sourced from the Immune Epitope Database (IEDB)
